Quick reference for IC50 among some binders
# Measured on: T1, human SIRPA_V1 protein (human, UniProt P78324 31-504)
# T1 construct: Expressed on 293α cells from pcDNA3.2 V5-DEST or pFLAG V5-DEST (FLAG-tagged) vectors; also called human SIRPA Variant 1; hSIRPA V1
# Test: blocking cell-based ELISA: peroxidase-labeled CD47-Fc (1 µg/mL) on 293α cells expressing SIRPA_V1
Quantity measured: IC50 (µg/mL)

Binder: ADU-1805 (antibody, human IgG2, kappa, V domains shown, IgG2 heavy chain; also called ADU-1805_hG2 / ADU-1805_hK) VH: EVQLVQSGAEVVKPGASVKLSCKASGSTFTSYWMHWVKQAPGQGLEWIGAIYPVNSDTTYNQKFKGKATLTVDKSASTAYMELSSLRSEDTAVYYCTRSFYYSLDAAWFVYWGQGTLVTVSS VL: DIQMTQSPSSLSASVGDRVTITCRASQDIGSRLNWLQQKPGKAPKRLIYATSSLDSGVPSRFSGSGSGTEFTLTISSLQPEDFATYYCLQYASSPFTFGGGTKVEIKR
Quantity measured: IC50
Val: 2.97

Binder: KWAR23 (antibody, human IgG4 S228P, kappa, V domains shown, IgG4Pro heavy chain; also called KWAR23_hG4Pro / KWAR23_hK) VH: EVQLQQSGAELVKPGASVKLSCTASGFNIKDYYIHWVQQRTEQGLEWIGRIDPEDGETKYAPKFQDKATITADTSSNTAYLHLSSLTSEDTAVYYCARWGAYWGQGTLVTVSA VL: QIVLTQSPAIMSASPGEKVTLTCSASSSVSSSYLYWYQQKPGSSPKLWIYSTSNLASGVPARFSGSGSGTSYSLTISSMEAEDAASYFCHQWSSYPRTFGAGTKLELKR
Quantity measured: IC50
Val: 2.24

Binder: humanized anti-SIRPA antibody hD13_H1L3 (antibody, human IgG4 S228P, kappa, F234A L235A, V domains shown, hH1 heavy chain (IgG4proFALA) and hL3 kappa light chain; also called hD13_HIL3; HIL3 antibody) VH: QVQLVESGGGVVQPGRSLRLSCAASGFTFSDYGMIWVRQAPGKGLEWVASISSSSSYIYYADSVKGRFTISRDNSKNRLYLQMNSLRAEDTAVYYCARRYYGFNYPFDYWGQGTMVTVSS VL: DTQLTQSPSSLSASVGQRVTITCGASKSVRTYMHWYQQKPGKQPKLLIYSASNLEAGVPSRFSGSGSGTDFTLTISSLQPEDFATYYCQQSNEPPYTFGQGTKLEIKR
Quantity measured: IC50
Val: 1.58

Binder: OSE-172 (antibody, human IgG4 S228P, kappa, V domains shown, IgG4Pro heavy chain) VH: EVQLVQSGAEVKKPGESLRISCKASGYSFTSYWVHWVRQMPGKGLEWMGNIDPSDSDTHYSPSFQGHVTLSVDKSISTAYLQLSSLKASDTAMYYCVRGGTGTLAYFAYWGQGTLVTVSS VL: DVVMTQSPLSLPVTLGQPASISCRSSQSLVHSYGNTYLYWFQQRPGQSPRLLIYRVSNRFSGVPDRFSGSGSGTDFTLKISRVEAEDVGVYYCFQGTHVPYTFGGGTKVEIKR
Quantity measured: IC50
Val: 2.32
